- System: Staphylococcus aureus
- Assay Remarks: MIC, test tube serial dilution, Staphylococcus aureus
- Assay type: cell-based
- Conditions Used: strain 1756 (BRL 1 756); 24 hours, 37°C
I'd be grateful if you could share measured MIC for these entries.

Ask: Given the compound `CC1(C)S[C@@H]2[C@H](NC(=O)[C@H](NC(=O)N3CCN(C(=O)N4CCCCC4)C3=O)c3ccccc3)C(=O)N2[C@H]1C(=O)O` , what is its reported MIC?
Result: > 256 U/ml

Ask: Tell me the measured MIC of `CC1(C)S[C@@H]2[C@H](NC(=O)[C@H](NC(=O)N3CCN(S(C)(=O)=O)C3=O)c3ccccc3)C(=O)N2[C@H]1C(=O)O` , please.
Result: 64-256 U/ml

Ask: Data request, read-out MIC, for `CC1(C)S[C@@H]2[C@H](NC(=O)[C@H](NC(=O)N3CCN(C(N)=O)C3=O)c3ccccc3)C(=O)N2[C@H]1C(=O)O`
Result: > 256 U/ml

Ask: Tell me the measured MIC of `CC1(C)S[C@@H]2[C@H](NC(=O)[C@H](NC(=O)N3CCN(C(=O)Nc4ccccc4)C3=O)c3ccccc3)C(=O)N2[C@H]1C(=O)O` , please.
Result: > 256 U/ml
